Listing of entries alongside the reported logFC of FER (P16591-1).
molecular target: protein kinases (human kinome) (Homo sapiens); format: cell-based; conditions: Experiment wp016; down
Answer using only a numeral; do not append any unit.

So what's the measured logFC of FER (P16591-1) for this one? CC(C)S(=O)(=O)c1ccccc1Nc1nc(Nc2ccc(N3CCN(CCOCCOCCOCCNC(=O)CNc4ccc5c(c4)C(=O)N(C4CCC(=O)NC4=O)C5=O)CC3)cc2)ncc1Cl (stereo not drawn) [SK.3.89]
−2.262

So what's the measured logFC of FER (P16591-1) for this one? CC(C)S(=O)(=O)c1ccccc1Nc1nc(Nc2ccc(N3CCN(CCOCCOCCOCCNC(=O)CNc4cccc5c4C(=O)N(C4CCC(=O)NC4=O)C5=O)CC3)cc2)ncc1Cl (stereo not drawn) [SK.3.87]
−1.97

So what's the measured logFC of FER (P16591-1) for this one? CC(C)S(=O)(=O)c1ccccc1Nc1nc(Nc2ccc(N3CCN(CCOCCNC(=O)CNc4ccc5c(c4)C(=O)N(C4CCC(=O)NC4=O)C5=O)CC3)cc2)ncc1Cl (stereo not drawn) [SK.3.93]
−2.64

So what's the measured logFC of FER (P16591-1) for this one? CC(C)S(=O)(=O)c1ccccc1Nc1nc(Nc2ccc(N3CCN(CCOCCOCCNC(=O)CNc4cccc5c4C(=O)N(C4CCC(=O)NC4=O)C5=O)CC3)cc2)ncc1Cl (stereo not drawn) [TL12.186]
−2.727

So what's the measured logFC of FER (P16591-1) for this one? CC(C)S(=O)(=O)c1ccccc1Nc1nc(Nc2ccc(N3CCN(CCOCCNC(=O)CNc4cccc5c4C(=O)N(C4CCC(=O)NC4=O)C5=O)CC3)cc2)ncc1Cl (stereo not drawn) [SK.3.91]
−2.645

So what's the measured logFC of FER (P16591-1) for this one? CC(C)S(=O)(=O)c1ccccc1Nc1nc(Nc2ccc(N3CCN(CCOCCOCCNC(=O)CNc4ccc5c(c4)C(=O)N(C4CCC(=O)NC4=O)C5=O)CC3)cc2)ncc1Cl (stereo not drawn) [LT2.49]
−2.467

* * *

Listing of entries alongside the reported logFC CDK12.
target: protein kinases (human kinome) (Homo sapiens, UniProt Q9NYV4); format: cell-based; conditions: Accession Q9NYV4-1; experiment wp016
Sequence (Q9NYV4 whole entry): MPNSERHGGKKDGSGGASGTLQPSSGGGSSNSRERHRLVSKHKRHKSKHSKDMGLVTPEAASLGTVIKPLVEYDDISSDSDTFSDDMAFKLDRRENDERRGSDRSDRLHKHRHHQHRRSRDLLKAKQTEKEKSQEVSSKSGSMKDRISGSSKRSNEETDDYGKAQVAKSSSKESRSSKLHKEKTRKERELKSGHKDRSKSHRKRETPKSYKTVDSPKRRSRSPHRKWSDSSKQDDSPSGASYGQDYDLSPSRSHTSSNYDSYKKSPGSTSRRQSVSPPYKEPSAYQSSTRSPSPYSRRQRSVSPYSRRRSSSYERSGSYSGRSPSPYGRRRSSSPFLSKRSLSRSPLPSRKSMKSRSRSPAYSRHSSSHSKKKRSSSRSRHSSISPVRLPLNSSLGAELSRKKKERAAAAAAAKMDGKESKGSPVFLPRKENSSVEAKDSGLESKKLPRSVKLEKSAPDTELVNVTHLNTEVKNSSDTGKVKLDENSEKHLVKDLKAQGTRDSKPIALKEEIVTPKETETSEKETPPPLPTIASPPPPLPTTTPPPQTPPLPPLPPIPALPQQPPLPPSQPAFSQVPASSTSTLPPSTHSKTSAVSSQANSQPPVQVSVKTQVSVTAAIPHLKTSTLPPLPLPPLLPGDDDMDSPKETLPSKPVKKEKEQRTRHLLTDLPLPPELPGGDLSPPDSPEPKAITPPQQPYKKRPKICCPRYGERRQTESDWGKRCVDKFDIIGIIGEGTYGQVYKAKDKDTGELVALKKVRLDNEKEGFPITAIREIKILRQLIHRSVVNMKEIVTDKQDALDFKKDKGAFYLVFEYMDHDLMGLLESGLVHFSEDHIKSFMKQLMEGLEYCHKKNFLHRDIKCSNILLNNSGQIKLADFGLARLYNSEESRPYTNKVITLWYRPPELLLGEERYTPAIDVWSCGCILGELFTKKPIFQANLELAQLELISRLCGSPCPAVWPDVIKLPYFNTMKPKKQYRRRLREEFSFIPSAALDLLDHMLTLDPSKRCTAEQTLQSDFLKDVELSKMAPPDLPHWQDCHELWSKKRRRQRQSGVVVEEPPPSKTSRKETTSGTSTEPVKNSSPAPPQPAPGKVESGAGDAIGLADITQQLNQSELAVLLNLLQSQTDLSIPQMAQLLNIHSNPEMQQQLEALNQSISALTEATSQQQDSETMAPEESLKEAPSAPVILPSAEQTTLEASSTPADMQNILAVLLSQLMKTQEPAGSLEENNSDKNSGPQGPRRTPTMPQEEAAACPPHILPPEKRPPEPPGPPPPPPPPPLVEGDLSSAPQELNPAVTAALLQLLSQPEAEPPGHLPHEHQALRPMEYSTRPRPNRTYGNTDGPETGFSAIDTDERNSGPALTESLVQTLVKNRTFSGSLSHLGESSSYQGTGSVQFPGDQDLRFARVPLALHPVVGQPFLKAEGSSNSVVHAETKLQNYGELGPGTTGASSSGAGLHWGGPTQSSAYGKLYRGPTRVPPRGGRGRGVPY
Answer using only a numeral; do not append any unit.

Solved cases below.
Compound: CC(C)S(=O)(=O)c1ccccc1Nc1nc(Nc2ccc(N3CCN(CCOCCNC(=O)CNc4ccc5c(c4)C(=O)N(C4CCC(=O)NC4=O)C5=O)CC3)cc2)ncc1Cl (stereo not drawn)
Target Or System: protein kinases (human kinome) (Homo sapiens, UniProt Q9NYV4)
logFC CDK12: −0.9555

Compound: CC(C)S(=O)(=O)c1ccccc1Nc1nc(Nc2ccc(N3CCN(CCOCCOCCOCCNC(=O)CNc4ccc5c(c4)C(=O)N(C4CCC(=O)NC4=O)C5=O)CC3)cc2)ncc1Cl (stereo not drawn)
Target Or System: protein kinases (human kinome) (Homo sapiens, UniProt Q9NYV4)
logFC CDK12: −0.5237

Compound: CC(C)S(=O)(=O)c1ccccc1Nc1nc(Nc2ccc(N3CCN(CCOCCOCCNC(=O)CNc4ccc5c(c4)C(=O)N(C4CCC(=O)NC4=O)C5=O)CC3)cc2)ncc1Cl (stereo not drawn)
Target Or System: protein kinases (human kinome) (Homo sapiens, UniProt Q9NYV4)
logFC CDK12: −0.868

Compound: CC(C)S(=O)(=O)c1ccccc1Nc1nc(Nc2ccc(N3CCN(CCOCCOCCNC(=O)CNc4cccc5c4C(=O)N(C4CCC(=O)NC4=O)C5=O)CC3)cc2)ncc1Cl (stereo not drawn)
Target Or System: protein kinases (human kinome) (Homo sapiens, UniProt Q9NYV4)
logFC CDK12: −0.9185

Compound: CC(C)S(=O)(=O)c1ccccc1Nc1nc(Nc2ccc(N3CCN(CCOCCOCCOCCNC(=O)CNc4cccc5c4C(=O)N(C4CCC(=O)NC4=O)C5=O)CC3)cc2)ncc1Cl (stereo not drawn)
Target Or System: protein kinases (human kinome) (Homo sapiens, UniProt Q9NYV4)
logFC CDK12: −0.5073

So what's the measured logFC CDK12 for this one? CC(C)S(=O)(=O)c1ccccc1Nc1nc(Nc2ccc(N3CCN(CCOCCNC(=O)CNc4cccc5c4C(=O)N(C4CCC(=O)NC4=O)C5=O)CC3)cc2)ncc1Cl (stereo not drawn)
−1.134

* * *

Listing of entries alongside the reported logFC.
tested on: protein kinases (human kinome); type: cell-based; details: CDK9 (P50750-2) protein abundance, degrader vs DMSO; down
Answer using only a numeral; do not append any unit.

Solved cases below.
Compound: NC(=O)c1c(F)cccc1Nc1nc(NC2CCN(S(=O)(=O)CCNC(=O)CCCCCCCCOc3cccc4c3C(=O)N(C3CCC(=O)NC3=O)C4=O)CC2)ncc1Br (stereo not drawn) [TMX.01.160]
logFC: −1.181

Compound: CC(C)S(=O)(=O)c1ccccc1Nc1nc(Nc2ccc(N3CCN(CCOCCOCCNC(=O)CNc4ccc5c(c4)C(=O)N(C4CCC(=O)NC4=O)C5=O)CC3)cc2)ncc1Cl (stereo not drawn) [LT2.49]
logFC: −0.6469

// next item, logFC requested
Find logFC (protein kinases (human kinome)) for the entry Cc1cc(Nc2ncc(Br)c(Nc3cccc(F)c3C(N)=O)n2)ccc1S(=O)(=O)NCCOCCOCCOCCOCCNc1cccc2c1C(=O)N(C1CCC(=O)NC1=O)C2=O (stereo not drawn) [TMX.02.174]
−1.666

* * *

tested on: protein kinases (human kinome); type: cell-based; conditions: Experiment wp016; direction down
Metric Name: logFC PRKAA1 (Q13131-2)
Answer using only a numeral; do not append any unit.

Solved cases below.
Molecule: CC(C)S(=O)(=O)c1ccccc1Nc1nc(Nc2ccc(N3CCN(CCOCCOCCNC(=O)CNc4ccc5c(c4)C(=O)N(C4CCC(=O)NC4=O)C5=O)CC3)cc2)ncc1Cl (stereo not shown) [LT2.49]
logFC PRKAA1 (Q13131-2): −0.3739

Molecule: CC(C)S(=O)(=O)c1ccccc1Nc1nc(Nc2ccc(N3CCN(CCOCCNC(=O)CNc4cccc5c4C(=O)N(C4CCC(=O)NC4=O)C5=O)CC3)cc2)ncc1Cl (stereo not shown) [SK.3.91]
logFC PRKAA1 (Q13131-2): −0.4914

Molecule: CC(C)S(=O)(=O)c1ccccc1Nc1nc(Nc2ccc(N3CCN(CCOCCOCCNC(=O)CNc4cccc5c4C(=O)N(C4CCC(=O)NC4=O)C5=O)CC3)cc2)ncc1Cl (stereo not shown) [TL12.186]
logFC PRKAA1 (Q13131-2): −0.434

// next item, logFC PRKAA1 (Q13131-2) requested
So what's the measured logFC PRKAA1 (Q13131-2) for this one? CC(C)S(=O)(=O)c1ccccc1Nc1nc(Nc2ccc(N3CCN(CCOCCNC(=O)CNc4ccc5c(c4)C(=O)N(C4CCC(=O)NC4=O)C5=O)CC3)cc2)ncc1Cl (stereo not shown) [SK.3.93]
−0.4738

* * *

Listing of entries alongside the reported logFC LIMK2.
biological target: protein kinases (human kinome) (Homo sapiens); format: cell-based; details: LIMK2 (P53671); experiment wp045; down
Answer using only a numeral; do not append any unit.

Solved cases below.
Molecule: CS(=O)(=O)Nc1cccc(-c2csc3cnc(Nc4ccc(N5CCN(CCOCCOCCOc6cccc7c6C(=O)N(C6CCC(=O)NC6=O)C7=O)CC5)cc4)nc23)c1 (stereo not shown)
logFC LIMK2: −0.7182

Molecule: Cc1ccc(NC(=O)c2cccc(C(F)(F)F)c2)cc1N1Cc2cnc(Nc3ccc(N4CCN(CCCCCCOc5cccc6c5C(=O)N(C5CCC(=O)NC5=O)C6=O)CC4)nc3)nc2N(C)C1=O (stereo not shown)
logFC LIMK2: −1.367

Molecule: Cc1ccc(NC(=O)c2cccc(C(F)(F)F)c2)cc1N1Cc2cnc(Nc3ccc(N4CCN(Cc5cn(CCCCCOc6cccc7c6C(=O)N(C6CCC(=O)NC6=O)C7=O)nn5)CC4)nc3)nc2N(C)C1=O (stereo not shown)
logFC LIMK2: −1.648

// next item, logFC LIMK2 requested
Find logFC LIMK2 (protein kinases (human kinome) (Homo sapiens)) for the entry CS(=O)(=O)Nc1cccc(-c2csc3cnc(Nc4ccc(N5CCN(CCCCCOc6cccc7c6C(=O)N(C6CCC(=O)NC6=O)C7=O)CC5)cc4)nc23)c1 (stereo not shown)
−0.437

* * *

molecular target: protein kinases (human kinome) (Homo sapiens, UniProt Q00537); assay type: cell-based; settings: experiment wp016; direction of change down
Sequence (Q00537 whole entry): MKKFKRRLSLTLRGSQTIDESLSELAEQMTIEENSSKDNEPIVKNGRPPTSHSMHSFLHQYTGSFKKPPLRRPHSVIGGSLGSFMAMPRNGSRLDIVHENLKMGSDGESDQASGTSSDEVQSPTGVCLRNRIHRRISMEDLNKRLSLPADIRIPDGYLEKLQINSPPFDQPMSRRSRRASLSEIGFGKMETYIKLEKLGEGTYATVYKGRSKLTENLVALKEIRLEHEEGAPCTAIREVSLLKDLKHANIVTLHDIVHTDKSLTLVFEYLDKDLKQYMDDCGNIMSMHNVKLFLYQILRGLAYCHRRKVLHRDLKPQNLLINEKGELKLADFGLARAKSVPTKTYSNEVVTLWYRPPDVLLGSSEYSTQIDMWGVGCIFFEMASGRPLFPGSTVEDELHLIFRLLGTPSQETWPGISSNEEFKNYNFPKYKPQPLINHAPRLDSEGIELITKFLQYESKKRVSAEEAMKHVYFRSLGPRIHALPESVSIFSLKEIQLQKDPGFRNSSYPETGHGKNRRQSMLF
Decide using logFC CDK17 (Q00537): a value greater than or equal to -0.7 is satisfied, a smaller one is not satisfied.

Compound: CC(C)S(=O)(=O)c1ccccc1Nc1nc(Nc2ccc(N3CCN(CCOCCOCCOCCNC(=O)CNc4ccc5c(c4)C(=O)N(C4CCC(=O)NC4=O)C5=O)CC3)cc2)ncc1Cl (stereo not drawn) [SK.3.89]
Assigned Category: satisfied

Compound: CC(C)S(=O)(=O)c1ccccc1Nc1nc(Nc2ccc(N3CCN(CCOCCOCCNC(=O)CNc4ccc5c(c4)C(=O)N(C4CCC(=O)NC4=O)C5=O)CC3)cc2)ncc1Cl (stereo not drawn) [LT2.49]
Assigned Category: not satisfied

Compound: CC(C)S(=O)(=O)c1ccccc1Nc1nc(Nc2ccc(N3CCN(CCOCCOCCOCCNC(=O)CNc4cccc5c4C(=O)N(C4CCC(=O)NC4=O)C5=O)CC3)cc2)ncc1Cl (stereo not drawn) [SK.3.87]
Assigned Category: satisfied

Compound: CC(C)S(=O)(=O)c1ccccc1Nc1nc(Nc2ccc(N3CCN(CCOCCOCCNC(=O)CNc4cccc5c4C(=O)N(C4CCC(=O)NC4=O)C5=O)CC3)cc2)ncc1Cl (stereo not drawn) [TL12.186]
Assigned Category: not satisfied

# input for lookup
API: above_or_equal(metric=logFC CDK17 (Q00537), cutoff=-0.7) for item CC(C)S(=O)(=O)c1ccccc1Nc1nc(Nc2ccc(N3CCN(CCOCCNC(=O)CNc4cccc5c4C(=O)N(C4CCC(=O)NC4=O)C5=O)CC3)cc2)ncc1Cl (stereo not drawn) [SK.3.91]
not satisfied
